- TESTED SYSTEM: angiotensin-converting enzyme (ACE) (Oryctolagus cuniculus, UniProt P12822)
- Construct: Angiotensin-I-converting enzyme (rabbit lung); purchased Sigma Chemical Co., (St Louis, MO, USA); host or cells: rabbit lung tissue
- Sequence (P12822 34-1310): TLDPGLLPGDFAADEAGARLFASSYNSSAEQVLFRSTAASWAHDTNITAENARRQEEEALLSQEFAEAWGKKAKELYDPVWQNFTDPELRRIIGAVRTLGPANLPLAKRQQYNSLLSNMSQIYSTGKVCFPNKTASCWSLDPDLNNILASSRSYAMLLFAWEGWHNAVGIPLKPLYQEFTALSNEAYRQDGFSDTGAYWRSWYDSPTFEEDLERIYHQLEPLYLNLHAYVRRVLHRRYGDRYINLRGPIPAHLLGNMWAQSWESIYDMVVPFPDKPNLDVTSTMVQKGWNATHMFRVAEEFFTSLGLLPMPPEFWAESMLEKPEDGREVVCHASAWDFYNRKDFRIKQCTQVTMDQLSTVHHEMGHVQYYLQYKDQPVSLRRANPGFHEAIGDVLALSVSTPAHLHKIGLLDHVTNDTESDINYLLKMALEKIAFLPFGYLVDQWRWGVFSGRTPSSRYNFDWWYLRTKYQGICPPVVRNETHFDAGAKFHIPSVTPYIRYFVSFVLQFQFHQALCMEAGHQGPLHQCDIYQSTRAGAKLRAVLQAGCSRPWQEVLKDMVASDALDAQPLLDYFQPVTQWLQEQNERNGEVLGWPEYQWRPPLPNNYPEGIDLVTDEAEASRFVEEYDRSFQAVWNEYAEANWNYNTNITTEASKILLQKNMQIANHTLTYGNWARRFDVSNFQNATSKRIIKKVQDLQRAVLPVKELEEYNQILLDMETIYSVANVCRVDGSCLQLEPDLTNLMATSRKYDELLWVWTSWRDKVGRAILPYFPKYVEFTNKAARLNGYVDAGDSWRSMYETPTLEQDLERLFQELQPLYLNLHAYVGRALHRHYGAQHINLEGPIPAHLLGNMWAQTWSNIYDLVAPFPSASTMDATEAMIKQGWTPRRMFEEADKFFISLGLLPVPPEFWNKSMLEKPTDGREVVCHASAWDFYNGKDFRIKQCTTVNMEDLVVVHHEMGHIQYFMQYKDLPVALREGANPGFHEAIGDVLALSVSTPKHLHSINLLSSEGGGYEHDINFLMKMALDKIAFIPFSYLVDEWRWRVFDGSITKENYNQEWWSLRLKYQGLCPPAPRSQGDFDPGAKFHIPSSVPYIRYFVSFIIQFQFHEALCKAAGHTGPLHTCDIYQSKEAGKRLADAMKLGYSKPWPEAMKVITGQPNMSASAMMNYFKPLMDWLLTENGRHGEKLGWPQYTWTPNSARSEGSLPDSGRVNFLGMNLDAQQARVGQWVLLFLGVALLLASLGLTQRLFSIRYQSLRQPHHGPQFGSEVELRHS
- EXPERIMENTAL PROTOCOL: Peptide stability study: hydrolysis of peptides by ACE, RP-HPLC
- Assay type: in vitro ADME, rabbit
- EXPERIMENTAL CONDITIONS: rabbit, isolated angiotensin-converting enzyme (ACE); incubation with ACE 1 h, 37 °C, peptide 4 mM; read-out: Cleavage (%)
Peptide text beside a SMILES is read from it.
RESULT TYPE: metabolised at 1 h, 2.4 mM (%)

MOLECULE	MEAS VALUE
CC(C)C[C@H](NC(=O)[C@H](CC(C)C)NC(=O)[C@H](CC(C)C)NC(=O)[C@@H](N)Cc1ccc(O)cc1)C(=O)N[C@@H](CCCCN)C(=O)O [YLLLK] (H-YLLLK-OH; N-terminus and C-terminus assumed)	93
CC(C)C[C@H](NC(=O)[C@H](CC(C)C)NC(=O)[C@H](C)NC(=O)[C@H](Cc1ccc(O)cc1)NC(=O)[C@H](Cc1c[nH]cn1)NC(=O)CNC(=O)[C@H](C)NC(=O)CNC(=O)[C@H](CCC(=O)O)NC(=O)[C@H](CCC(N)=O)NC(=O)[C@@H](NC(=O)CN)C(C)C)C(=O)O [GVQEGAGHYALL] (H-GVQEGAGHYALL-OH; N-terminus and C-terminus assumed)	65
C[C@H](NC(=O)[C@@H](N)Cc1c[nH]c2ccccc12)C(=O)N[C@@H](Cc1ccccc1)C(=O)N[C@@H](CO)C(=O)O [WAFS] (H-WAFS-OH; N-terminus and C-terminus assumed)	42

----------
- TESTED SYSTEM: angiotensin-converting enzyme (ACE) (Oryctolagus cuniculus)
- Construct: Angiotensin-I-converting enzyme (rabbit lung); purchased Sigma Chemical Co., (St Louis, MO, USA); host or cells: rabbit lung tissue
- EXPERIMENTAL PROTOCOL: Kinetics study of ACE inhibition (Michaelis-Menten and Lineweaver-Burk plots, HHL substrate)
- Type: biochemical, rabbit
- EXPERIMENTAL CONDITIONS: from plot of 1/Vmax against inhibitor concentration; read-out: Kiu (mM) (enzyme-inhibitor dissociation constant)
Peptide text beside a SMILES is read from it.

COMPOUND	Ki
C[C@H](NC(=O)[C@@H](N)Cc1c[nH]c2ccccc12)C(=O)N[C@@H](Cc1ccccc1)C(=O)N[C@@H](CO)C(=O)O [WAFS] (H-WAFS-OH; N-terminus and C-terminus assumed)	2 mM
CC(C)C[C@H](NC(=O)[C@H](CC(C)C)NC(=O)[C@H](C)NC(=O)[C@H](Cc1ccc(O)cc1)NC(=O)[C@H](Cc1c[nH]cn1)NC(=O)CNC(=O)[C@H](C)NC(=O)CNC(=O)[C@H](CCC(=O)O)NC(=O)[C@H](CCC(N)=O)NC(=O)[C@@H](NC(=O)CN)C(C)C)C(=O)O [GVQEGAGHYALL] (H-GVQEGAGHYALL-OH; N-terminus and C-terminus assumed)	3.18 mM

----------
- TESTED SYSTEM: angiotensin-converting enzyme (ACE) (Oryctolagus cuniculus)
- Construct: Angiotensin-I-converting enzyme (rabbit lung); purchased Sigma Chemical Co., (St Louis, MO, USA); host or cells: rabbit lung tissue
- EXPERIMENTAL PROTOCOL: Peptide stability study: hydrolysis of peptides by ACE, RP-HPLC
- Format: in vitro ADME, rabbit
- EXPERIMENTAL CONDITIONS: rabbit, isolated angiotensin-converting enzyme (ACE); incubation with ACE 3 h, 37 °C, peptide 4 mM; read-out: Cleavage (%)
Peptide text beside a SMILES is read from it.
Below, each entry is listed alongside its reported metabolised at 3 h, 2.4 mM.

COMPOUND	metabolised at 3 h, 2.4 mM / %
CC(C)C[C@H](NC(=O)[C@H](CC(C)C)NC(=O)[C@H](CC(C)C)NC(=O)[C@@H](N)Cc1ccc(O)cc1)C(=O)N[C@@H](CCCCN)C(=O)O [YLLLK] (H-YLLLK-OH; N-terminus and C-terminus assumed)	94
CC(C)C[C@H](NC(=O)[C@H](CC(C)C)NC(=O)[C@H](C)NC(=O)[C@H](Cc1ccc(O)cc1)NC(=O)[C@H](Cc1c[nH]cn1)NC(=O)CNC(=O)[C@H](C)NC(=O)CNC(=O)[C@H](CCC(=O)O)NC(=O)[C@H](CCC(N)=O)NC(=O)[C@@H](NC(=O)CN)C(C)C)C(=O)O [GVQEGAGHYALL] (H-GVQEGAGHYALL-OH; N-terminus and C-terminus assumed)	97
C[C@H](NC(=O)[C@@H](N)Cc1c[nH]c2ccccc12)C(=O)N[C@@H](Cc1ccccc1)C(=O)N[C@@H](CO)C(=O)O [WAFS] (H-WAFS-OH; N-terminus and C-terminus assumed)	68
